Assignment: determine reported IC50 for the given compounds.
Assay: Antagonist activity at PAR4 in mouse washed platelets assessed as inhibition of gamma-PAR4 agonist peptide (AYPGKF-NH2)-induced platelet aggregation preincubated for 5 mins followed by peptide addition and measured after 5 mins by aggregometer
Write the numeric value and append its unit.

>>> observed("COc1ncc2cc(C)cc(-c3nc4c(C)cc5c(c4s3)OCCO5)c2n1")
"117 nM"

Could I get IC50 for every one of these entries?
1. COc1ncc2c(-c3nc4cc(F)c5c(c4s3)C[C@@H](COC(=O)N3CCOCC3)O5)cc(C)cc2n1
2. COc1cc(Cl)c2nc(-c3cc(C)cc4cnc(SC)nc34)sc2c1
3. COc1cc(Cl)c2nc(-c3cc(C)cc4cnc(N5CCOCC5)nc34)sc2c1

Outgoing:
1: 304 nM; 2: 89 nM; 3: 220 nM

Incoming: Looking for the measured IC50 of COc1ncc2c(-c3nc4ccccc4s3)cc(C)cc2n1 , can you help?
Outgoing: 368 nM
